Test system: IGROV1 ovarian
Test: NCI-60 one-dose screen, 48 h
Settings: 10 µM unless noted
Method: Growth inhibition of the IGROV1 human tumor cell line is measured as a screen for anti-cancer activity. Cells are grown in 96 well plates and exposed to the test compound for 48 hours. Compounds are tested at a single concentration, which is 10^-5 M for most compounds. The reported endpoint is percent growth (GI% or GIPRCNT), where numbers from 0 - 100% represent growth inhibition, and numbers from -100% - 0 represent cell death. For example, a value of 40 represents 60% growth inhibition. […]
Compounds without any hit were thinned out: in the full panel of roughly 83,000, 20% have a hit. Active and inactive are the calls of the source. How the source made its calls: active means growth percent below 10; inactive means the rest.
Assign a class; possible classes are true = active, false = inactive

Worked cases, answers included:
Compound	Group Label
COC1=CC(=O)C(OC)=C(OC)C1=O	false
Cc1cc(Nc2nc(N3CCN(C)CC3)nc3ccccc23)n[nH]1	false
Cn1c2c(Cl)c(Cl)ccc2c2ccn3c(=O)c4ccccc4nc3c21	false

Given C=C1CC[C@@H]2[C@](C)(COC(C)=O)[C@H](OC(C)=O)CC[C@@]2(C)[C@@H]1CC(Nc1ccc(S(=O)(=O)Nc2ccc(Cl)nn2)cc1)C1=CCOC1=O (some centres undefined) , state the outcome it received in this test.
false

Given CCOC(=O)C(C#N)C1CCCCC1 (centres undefined) , state the outcome it received in this test.
false

---

tested on: OVCAR-5 ovarian; experiment: NCI-60 one-dose screen, 48 h (100 = growth as untreated, 0 = no growth, -100 = all killed); conditions: 10 µM unless noted
About 83,000 compounds went through this panel and 20% of them were active in at least one assay; those are over-represented in the sample as a whole.
So basically: growth at 80% or higher? That is True. Lower than 80%? That is False.

Worked cases, answers included:
Compound	Target Or Test System	Group Label
CC(=O)/C(=C/c1cccc(Cl)c1)C(=O)c1ccccc1	OVCAR-5 ovarian	True
CC[C@]12C=CCN3CC[C@@]4(c5ccc(OC)cc5N(C)[C@H]4[C@@](O)(C(=O)OC)[C@@H]1OC(=O)CCC(=O)N[C@@H](Cc1c[nH]c4ccccc14)C(=O)OC)[C@@H]32	OVCAR-5 ovarian	True
O=C(/C=C/c1ccc(Cl)cc1)c1ccc(O)c(CN2CCN(c3cc4c(cc3F)c(=O)c(C(=O)O)cn4C3CC3)CC2)c1	OVCAR-5 ovarian	False
CCCCCCCCCCNC(=O)CCl	OVCAR-5 ovarian	True

Tell me whether growth is at least 80% here: "CCOC(=O)c1nc(Nc2cc(C)[nH]n2)c2ccccc2n1"
True

Tell me whether growth is at least 80% here: "c1ccc2c(Nc3cccc4ccccc34)cccc2c1"
True

Tell me whether growth is at least 80% here: C=C1CCC2C3(C)COC(C)(C)OC3CCC2(C)C1C/C=C1/C(=O)OCC1OC(C)=O (stereo unspecified)
False

Tell me whether growth is at least 80% here: "NC1=CSC2=N/C(=C\c3ccc(Cl)cc3)C(=O)N12"
True

Tell me whether growth is at least 80% here: "Cn1c2ccccc2c2c3c(c4c5ccccc5n(CCCCCC#N)c4c21)C(=O)N(O)C3=O"
False

---

system: T-47D breast; test: NCI-60 one-dose screen, 48 h (100 = growth as untreated, 0 = no growth, -100 = all killed); details: 10 µM unless noted
This is part of a sample that, as a whole, favours compounds with a hit. Of some 83,000 tested, about 20% had one in any assay.
Field 'label' (enum: MET / NOT MET). Set to MET when growth is strictly under 50%; else NOT MET.

Worked cases, answers included:
Compound	Group Label
CN1CCN(Cc2ccc(NC(=O)c3cncc(C#Cc4cncc5nccnc45)c3)cc2C(F)(F)F)CC1	MET
Cc1cc(-c2nc3ccccc3s2)ccc1NC(=O)COc1ccc(Cl)cc1	MET
CN(C)C(=O)c1cc2cnc(Nc3ccc(-c4csc5c(=O)cc(N6CCNCC6)oc45)cc3)nc2n1C1CCCC1	NOT MET
CC[C@]12C=CCN3CC[C@@]4(c5ccc(OC)cc5N(C)[C@H]4[C@@](O)(C(=O)OC)[C@@H]1OC(=O)CCC(=O)N[C@@H](Cc1c[nH]c4ccccc14)C(=O)OC)[C@@H]32	NOT MET
O=C1C=CC(=O)N1c1ccc(Cc2ccc(N3C(=O)C=CC3=O)cc2)cc1	NOT MET
Cc1ccc(Nc2nc(N)nc(Nc3ccc4ccccc4c3)n2)cc1	MET
CC(=O)OCC1OC(OC2=C(CC=C(Cl)Cl)C(=O)c3ccccc3C2=O)C(OC(C)=O)C(OC(C)=O)C1OC(C)=O (stereo not drawn)	MET

Now consider a different compound.
Identify whether the compound "Cc1ccc2c(NCCCN(C)C)c3c(C)nn(C)c3nc2c1" records growth below 50%.
MET
